// reported pIC50 per item
assay: Cell growth assay, WST-8 (compounds B1-B126); format: cell-based; details: 96 h; T47D cell line, WST-8, 4 days; read-out: Cell growth inhibition in T47D cell line IC50
pIC50: −log10 of the molar value.

Example entries begin here.
molecule="C[C@@H]1Cc2c(ccc3[nH]ncc23)[C@@H](c2c(F)cc(N3CC4(CN(CC(=O)N5CCN6c7ccc8c(c7OC[C@H]6C5)CN(C5CCC(=O)NC5=O)C8=O)C4)C3)cc2F)N1CC(F)F (some centres unmarked)" readout_label=pIC50 val="> 9.00"
molecule="COc1cc(N2CCC3(CCN(C(=O)CN4Cc5cc6c(cc5C4)C(=O)N(C4CCC(=O)NC4=O)C6)CC3)CC2)ccc1[C@@H]1c2ccc3[nH]ncc3c2C[C@@H](C)N1CC(F)F (some centres unmarked)" readout_label=pIC50 val="> 9.00"
molecule="C[C@@H]1Cc2c(ccc3[nH]ncc23)[C@@H](c2c(F)cc(N3CCC(CN4CCN5c6c(ccc7c6CN(C6CCC(=O)NC6=O)C7=O)OC[C@@H]5C4)CC3)cc2F)N1CC(F)F (some centres unmarked)" readout_label=pIC50 val="< 8.00"
molecule="C[C@@H]1Cc2c(ccc3[nH]ncc23)[C@@H](c2c(F)cc(N3CC4(CCN(CC(=O)N5CCN6c7cc8c(cc7OC[C@@H]6C5)C(=O)N(C5CCC(=O)NC5=O)C8)C4)C3)cc2F)N1CC(F)F (some centres unmarked)" readout_label=pIC50 val="> 9.00"

Turning now to a further record.
# lookup: pIC50 of C[C@@H]1Cc2c(ccc3[nH]ncc23)[C@@H](c2cnc(N3CCC4(CCC(CN5CCN6c7ccc8c(c7OC[C@H]6C5)CN([C@H]5CCC(=O)NC5=O)C8=O)CO4)CC3)nc2)N1CC(F)(F)F (some centres unmarked) > 9.00
